Exercise: for every item that follows, state its recorded inhibition at 4 µM.
# study_target: Cathepsin D (Homo sapiens)
# Sequence (P07339 169-412 limits assumed): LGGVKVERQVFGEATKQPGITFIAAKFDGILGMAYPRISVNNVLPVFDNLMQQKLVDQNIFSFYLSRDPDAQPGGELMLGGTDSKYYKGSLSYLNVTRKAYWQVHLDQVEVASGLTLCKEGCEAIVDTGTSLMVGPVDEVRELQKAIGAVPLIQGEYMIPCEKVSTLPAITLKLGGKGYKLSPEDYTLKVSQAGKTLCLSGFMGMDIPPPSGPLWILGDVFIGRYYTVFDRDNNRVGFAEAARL
# Sequence (P07339 65-162 limits assumed): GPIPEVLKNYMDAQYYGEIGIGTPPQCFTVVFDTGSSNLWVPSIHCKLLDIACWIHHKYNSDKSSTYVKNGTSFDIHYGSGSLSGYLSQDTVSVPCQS
# assay_remarks: Assay 3: cathepsin D inhibition activity (non-cellular assay, chromogenic substrate)
# Format: biochemical
# Set-up: Frozen human placental tissue was thawed and homogenized; from tissue; host or cells: human placenta
# settings: 4 µM test compound; inhibition of initial rate relative to control; cathepsin D from human placental tissue; read-out: % inhibition at 4µ M
Output spec: scalar in %, unitless text.

Entry CC(C)(C)NC(=O)c1ccccc1C[C@@H](O)[C@H](Cc1ccccc1)NC(=O)[C@H](Cc1cnc[nH]1)NC(=O)[C@@H](Cc1cccc2ccccc12)NC(=O)OC(C)(C)C [Example 28] needs its inhibition at 4 µM filled in; supply it.
6

Identify the reported inhibition at 4 µM for the following entry. CC(C)(C)NC(=O)c1ccccc1C[C@@H](O)[C@H](Cc1ccccc1)NC(=O)[C@H](CC(=O)NCc1ccccn1)NC(=O)c1ccc2ccccc2n1 [Example 16]
36

Give the value of inhibition at 4 µM reported for the following: CC(C)(C)NC(=O)c1ccccc1C[C@@H](O)[C@H](Cc1ccccc1)NC(=O)[C@H](CC(N)=O)NS(=O)(=O)CCc1cccc2ccccc12 [Example 32]
12

Item CC(C)(C)NC(=O)c1ccccc1C[C@@H](O)[C@H](Cc1ccccc1)NC(=O)[C@H](Cc1c[nH]cn1)NC(=O)[C@H](Cc1cccc2ccccc12)NC(=O)OC(C)(C)C [Example 27] : provide inhibition at 4 µM
40

For the compound CC(C)(C)NC(=O)c1sccc1C[C@@H](O)[C@H](Cc1ccccc1)NC(=O)[C@H](CC(N)=O)NC(=O)c1ccc2ccccc2n1 [Example 14] , give its reported inhibition at 4 µM.
22

Give recorded inhibition at 4 µM. CC(C)(C)NC(=O)c1ccccc1C[C@@H](O)[C@H](Cc1ccccc1)NC(=O)[C@H](CC(=O)O)NC(=O)c1ccc2ccccc2n1 [Example 15]
49

---

# study_target: Human liver cathepsin D (Homo sapiens)
# Sequence (P07339 65-412): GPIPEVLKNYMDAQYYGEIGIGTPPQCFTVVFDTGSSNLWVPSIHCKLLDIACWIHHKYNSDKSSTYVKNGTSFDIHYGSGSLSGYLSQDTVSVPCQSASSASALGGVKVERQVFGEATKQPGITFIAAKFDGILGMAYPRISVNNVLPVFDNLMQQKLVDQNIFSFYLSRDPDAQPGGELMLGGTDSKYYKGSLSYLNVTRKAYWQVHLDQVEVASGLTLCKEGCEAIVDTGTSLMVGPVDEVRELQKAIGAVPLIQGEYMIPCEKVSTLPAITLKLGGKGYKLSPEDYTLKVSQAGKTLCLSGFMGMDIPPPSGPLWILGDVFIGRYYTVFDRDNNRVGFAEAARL
# assay_remarks: Assay 2: cathepsin D inhibition activity (non-cellular fluorometric assay)
# Type: biochemical
# Set-up: Human liver cathepsin D (Athens Research and Technology, Athens, GA); purchased Athens Research and Technology, Athens, GA; host or cells: human liver (by the product's printed name)
# Protocol: A second non-cellular assay for determining in vitro aspartyl protease inhibitory activity utilizes a microtiter plate, where a suitable aspartyl protease, such as cathepsin D is added to each well together with controls. A suitable fluorometric substrate is added to each well. […] After enzyme activity is terminated, the substrate or its product may be determined fluorometrically and then the protease inhibition activity may be calculated based on the rates of substrate turnover. […]
Non-standard residues stand in square brackets, D forms with d. Residues, ends and D or L forms follow the SMILES beside them. Sta = CC(C)C[C@H](N)[C@@H](O)CC(=O)O; N(iPr)Gly = CC(C)NCC(=O)O
Label 1 when inhibition at 10 µg/mL >= 80%; otherwise 0.

Check this compound for inhibition at 10 µg/mL at or above 80%: CC(C)C[C@H](NC(=O)[C@@H](NC(=O)CN)C(C)C)[C@@H](O)CC(=O)N[C@@H](C)C(=O)N[C@H](C(=O)O)[C@@H](C)O [Example 45, Gly-Val-Sta-Ala-Thr-OH] (H-GV[Sta]AT-OH)
0

Has CC(=O)NCC(=O)N[C@H](C(=O)N[C@H](C(=O)N[C@@H](CC(C)C)[C@@H](O)CC(=O)N[C@@H](C)C(=O)N[C@H](C(=O)O)[C@@H](C)O)C(C)C)C(C)C [Example 41, CH3C(O)-Gly-Val-Val-Sta-Ala-Thr-OH] (Ac-GVV[Sta]AT-OH) a recorded inhibition at 10 µg/mL greater than or equal to 80%?
1

Does CC(C)C[C@H](NC(=O)[C@@H](NC(=O)[C@@H](NC(=O)CNC(C)C)C(C)C)C(C)C)[C@@H](O)CC(=O)N[C@@H](C)C(=O)N[C@H](C(=O)O)[C@@H](C)O [Example 42, (CH3)2CH-Gly-Val-Val-Sta-Ala-Thr-OH] (H-[N(iPr)Gly]VV[Sta]AT-OH) have a reported inhibition at 10 µg/mL of at least 80%?
1

Exam item: decide whether the reported inhibition at 10 µg/mL for CC(C)C[C@H](NC(=O)[C@@H](NC(=O)[C@@H](NC(=O)CN)C(C)C)C(C)C)[C@@H](O)CC(=O)N[C@@H](C)C(=O)N[C@H](C(=O)O)[C@@H](C)O [Example 43, Gly-Val-Val-Sta-Ala-Thr-OH] (H-GVV[Sta]AT-OH) is at least 80%.
1

---

# study_target: Human brain cathepsin D (Homo sapiens)
# Construct: Human brain cathepsin D was purified from frozen post-mortem cortex
# assay_remarks: Assay 1: cathepsin D inhibition activity (non-cellular assay, porcine renin tetradecapeptide substrate, RP-HPLC)
# settings: purified human brain cathepsin D, pH 4.5, 44 µM porcine renin tetradecapeptide, 37°C
# Protocol: An example of a non-cellular assay that may be used to determine in vitro aspartyl protease inhibitory activity reacts partially purified human brain cathepsin D with a substrate, e.g., porcine renin tetradecapeptide. […] After the reaction is stopped, the turnover of substrate in each portion is determined using reverse-phase HPLC. Protease inhibition activity may be calculated based on the rates of substrate turnover. […]
Non-standard residues stand in square brackets, D forms with d. Residues, ends and D or L forms follow the SMILES beside them. Sta = CC(C)C[C@H](N)[C@@H](O)CC(=O)O
attribute_measured: IC50 (nM)
Express it in nM; write the number only.

Indicate the recorded IC50 value for this molecule: CC(C)C[C@H](NC(=O)[C@@H](NC(=O)[C@@H](NC(=O)CN)C(C)C)C(C)C)[C@@H](O)CC(=O)N[C@@H](C)C(=O)N[C@H](C(=O)O)[C@@H](C)O [Example 43, Gly-Val-Val-Sta-Ala-Thr-OH] (H-GVV[Sta]AT-OH)
53

Check the records and state IC50 for CC(=O)NCC(=O)N[C@H](C(=O)N[C@H](C(=O)N[C@@H](CC(C)C)[C@@H](O)CC(=O)N[C@@H](C)C(=O)N[C@H](C(=O)O)[C@@H](C)O)C(C)C)C(C)C [Example 41, CH3C(O)-Gly-Val-Val-Sta-Ala-Thr-OH] (Ac-GVV[Sta]AT-OH)
4

---

# study_target: Human brain cathepsin D (Homo sapiens)
# Construct: Human brain cathepsin D was purified from frozen post-mortem cortex
# assay_remarks: Assay 1: cathepsin D inhibition activity (non-cellular assay, porcine renin tetradecapeptide substrate, RP-HPLC)
# settings: purified human brain cathepsin D, pH 4.5, 44 µM porcine renin tetradecapeptide, 37°C
pIC50: −log10 of the molar value. Non-standard residues stand in square brackets, D forms with d. Residues, ends and D or L forms follow the SMILES beside them. Sta = CC(C)C[C@H](N)[C@@H](O)CC(=O)O; N(iPr)Gly = CC(C)NCC(=O)O
Answer each item with its documented pIC50.

Give the reported value of pIC50 for this record: CC[C@H](C)[C@H](NC(=O)C[C@H](O)[C@H](CC(C)C)NC(=O)[C@@H](NC(=O)CNC(C)C)C(C)C)C(=O)N[C@@H](C)C(=O)N[C@H](C(=O)O)[C@@H](C)O [Example 48, (CH3)2CH-Gly-Val-Sta-Ile-Ala-Thr-OH] (H-[N(iPr)Gly]V[Sta]IAT-OH)
< 6.60

For the molecule CC(C)C[C@H](NC(=O)[C@@H](NC(=O)[C@@H](NC(=O)CNC(C)C)C(C)C)C(C)C)[C@@H](O)CC(=O)N[C@@H](C)C(=O)N[C@H](C(=O)O)[C@@H](C)O [Example 42, (CH3)2CH-Gly-Val-Val-Sta-Ala-Thr-OH] (H-[N(iPr)Gly]VV[Sta]AT-OH) , give its reported pIC50.
8.10

Retrieve pIC50 measured for CC[C@H](C)[C@H](NC(=O)C[C@H](O)[C@H](CC(C)C)NC(=O)CNC(C)C)C(=O)N[C@@H](C)C(=O)N[C@H](C(=O)O)[C@@H](C)O [Example 44, (CH3)2CH-Gly-Sta-Ile-Ala-Thr-OH] (H-[N(iPr)Gly][Sta]IAT-OH) and print it.
< 7.00

Identify pIC50 associated with the molecule CC(C)C[C@H](NC(=O)[C@@H](NC(=O)CNC(C)C)C(C)C)[C@@H](O)CC(=O)N[C@@H](C)C(=O)N[C@H](C(=O)O)[C@@H](C)O [Example 46, (CH3)2CH-Gly-Val-Sta-Ala-Thr-OH] (H-[N(iPr)Gly]V[Sta]AT-OH)
< 6.60

---

# study_target: Cathepsin D (Homo sapiens)
# assay_remarks: Assay 3: cathepsin D inhibition activity (non-cellular assay, chromogenic substrate)
# Format: biochemical
# Design: Frozen human placental tissue was thawed and homogenized; from tissue; host or cells: human placenta
# settings: 4 µM test compound; inhibition of initial rate relative to control; cathepsin D from human placental tissue; read-out: % inhibition at 4µ M
attribute_measured: inhibition at 4 µM (%)
# number only, unit % dropped from output

Specify measured inhibition at 4 µM for CC(C)(C)NC(=O)c1ccccc1C[C@@H](O)[C@H](Cc1ccccc1)NC(=O)[C@@H](CC(=O)O)NS(C)(=O)=O .
43

Recall and state the measured inhibition at 4 µM for CC(C)(C)NC(=O)c1ccccc1C[C@@H](O)[C@H](Cc1ccccc1)NC(=O)[C@H](CC(N)=O)NC(=O)c1cc(Cl)c2ccccc2n1 .
48

Could you please provide reported inhibition at 4 µM for CC[C@H](C)[C@H](NC(=O)OCc1ccc2ccccc2n1)C(=O)N[C@@H](Cc1ccccc1)[C@@H]1O[C@@H]1[C@H](Cc1ccccc1)NC(=O)[C@@H](NC(=O)OCc1ccc2ccccc2n1)[C@@H](C)CC ? Thanks!
40
